B1: TPR t1 (parent)
chain: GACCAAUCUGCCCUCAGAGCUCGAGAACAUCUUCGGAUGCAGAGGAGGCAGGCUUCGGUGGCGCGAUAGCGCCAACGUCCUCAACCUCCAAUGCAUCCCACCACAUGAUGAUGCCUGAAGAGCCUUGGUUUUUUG

Variants of: B1
protocol summary: polymerase ribozyme fitness, log enrichment relative to wild type (log ratio); higher = more active; in vitro selection for triplet polymerase activity
Classification scheme (polymerase ribozyme fitness (log ratio)): bottom range: < -2; center range: ≥ -2 and < -0.9; top range: ≥ -0.9

1. G17A C72U :: bottom range

# bin label for C62U C82U
top range

# bin label for C8G G45U G63C A83U A91C U112A
center range

# bin label for G48A C64U
top range

# bin label for G42C G44U A50C U125A
bottom range
